- Tested on: VchCAST RNA-guided transposition machinery (E. coli BL21(DE3) host, lacZ target)
- protocol.details: relative integration efficiency (T-RL orientation) vs wild-type transposon end (log2 (normalized fold change)); transposon end mutated: right end (5 bp flank + 75 bp right end); higher = more efficient transposition
As shown below, each of these sequences has a reported relative integration efficiency (log2) value.

sequence.chain: ACATTTGTCGATACAACCATAAAACGATAATTACACCCATAAATGGATAATTATCACACCCAATTTAACTATAACGCTCTGATCATAGTCAGACCAACATTGCTACGACCCGTATTCGCACCGACAC
target.or.system: VchCAST RNA-guided transposition machinery (E. coli BL21(DE3) host, lacZ target)
relative integration efficiency (log2): -1.19

sequence.chain: ACATTTGTTGATACAACCATAAAATCATAATTACACCCATAAATTGATAATTATCACACCCCATTTAACTATAACGCTCTGATCATAGTCAGACCAACATTGCTACGACCCGTATTCGCACCGACAC
target.or.system: VchCAST RNA-guided transposition machinery (E. coli BL21(DE3) host, lacZ target)
relative integration efficiency (log2): -2.85

sequence.chain: ACATTTGTTGATACAACCATTAAATGATAATTCCACCAATAAATTGATAATTATCACACCCAATTTAACTATAACGCTCTGATCATAGTCAGACCAACATTGCTACGACCCGTATTCGCACCGACAC
target.or.system: VchCAST RNA-guided transposition machinery (E. coli BL21(DE3) host, lacZ target)
relative integration efficiency (log2): -1.51

sequence.chain: ACATTTGTTTATACAACCATAAAATGATAATTACACCCATAAATTTATAATTATCACACCCAATTTAACTATAACGCTCTGATCATAGTCAGACCAACATTGCTACGACCCGTATTCGCACCGACAC
target.or.system: VchCAST RNA-guided transposition machinery (E. coli BL21(DE3) host, lacZ target)
relative integration efficiency (log2): -1.89

sequence.chain: ACATTTGTTGATACAACCATAAAATGATAATTACTCTGACACCCATAAATTGATAATTATCAGTGGGTATTTAACTATAACGTCATAGTCAGACCAACATTGCTACGACCCGTATTCGCACCGACAC
target.or.system: VchCAST RNA-guided transposition machinery (E. coli BL21(DE3) host, lacZ target)
relative integration efficiency (log2): -2.06

sequence.chain: ACATTTGTGGATCCAACCATAAAATGATAATTACACCCATAAATTGATCATTATCACACCCAATTTAACTATAACGCTCTGATCATAGTCAGACCAACATTGCTACGACCCGTATTCGCACCGACAC
target.or.system: VchCAST RNA-guided transposition machinery (E. coli BL21(DE3) host, lacZ target)
relative integration efficiency (log2): -1.6

sequence.chain: ACATTTGTTGATACAACCATAAAATGATAATTAATAATCACCCATAAATTGATAATTATCAACAAACGCCCGGTCGCGGTACTCTGATCATAGTCAGACCAACATTGCTACGACCCGTATTCGCACC
target.or.system: VchCAST RNA-guided transposition machinery (E. coli BL21(DE3) host, lacZ target)
relative integration efficiency (log2): -2.77

sequence.chain: ACATTTGTTGATACAACCATAAAGTGATATTTACACCCATAAATTGATATTGCTCACACCCATAAATTGATAATTACTCTGATCATAGTCAGACCAACATTGCTACGACCCGTATTCGCACCGACAC
target.or.system: VchCAST RNA-guided transposition machinery (E. coli BL21(DE3) host, lacZ target)
relative integration efficiency (log2): -0.232

sequence.chain: ACATTTGTTGATACAACCATAATTACATAATTACACCCATAAATTGATAATTATCACACCCATAAATTGATATTGCCTCTGATCATAGTCAGACCAACATTGCTACGACCCGTATTCGCACCGACAC
target.or.system: VchCAST RNA-guided transposition machinery (E. coli BL21(DE3) host, lacZ target)
relative integration efficiency (log2): -2.32

sequence.chain: ACATTTGTTGATACAACCATAAAAGGATCATTACACCCATAAATTGATAATTATCCCACCCCATTTAACTATAACGCTCTGATCATAGTCAGACCAACATTGCTACGACCCGTATTCGCACCGACAC
target.or.system: VchCAST RNA-guided transposition machinery (E. coli BL21(DE3) host, lacZ target)
relative integration efficiency (log2): -2.12

sequence.chain: ACATTTGTTGATACAACCATAAACGGATAATTACACCCATAAATTGATAATTATCACACCCATAAATTGATATTGCCTCTGATCATAGTCAGACCAACATTGCTACGACCCGTATTCGCACCGACAC
target.or.system: VchCAST RNA-guided transposition machinery (E. coli BL21(DE3) host, lacZ target)
relative integration efficiency (log2): -0.642

sequence.chain: ACATTTGTTGATACAACCATAAAATGATAATTACTCTGATCATAGTCACACCCATAAATTGATAATTATCACACCCATAAATTGATATTGCGACCAACATTGCTACGACCCGTATTCGCACCGACAC
target.or.system: VchCAST RNA-guided transposition machinery (E. coli BL21(DE3) host, lacZ target)
relative integration efficiency (log2): -4.95

sequence.chain: ACATTTGTTGATACAACCATAAAATGATAATTACACCCATAAATTGTATTTTATCACACCCATAAATTGATATTGCCTCTGATCATAGTCAGACCAACATTGCTACGACCCGTATTCGCACCGACAC
target.or.system: VchCAST RNA-guided transposition machinery (E. coli BL21(DE3) host, lacZ target)
relative integration efficiency (log2): -0.924

sequence.chain: ACATTTGTTGATACCACCATCAAATGATAATTCCACCCCTACATTGATAATTATCACACCCAATTTAACTATAACGCTCTGATCATAGTCAGACCAACATTGCTACGACCCGTATTCGCACCGACAC
target.or.system: VchCAST RNA-guided transposition machinery (E. coli BL21(DE3) host, lacZ target)
relative integration efficiency (log2): -5.99

sequence.chain: ACATTTGTTGATACAACCATAAAATGATAATTACACCCATAAATTGATAATTATCACACCCATAAATTGATATTGCTCTGATCATAGTCAGACCAACATTGCTACGACCCGTATTCGCACCGACACT
target.or.system: VchCAST RNA-guided transposition machinery (E. coli BL21(DE3) host, lacZ target)
relative integration efficiency (log2): 0.126

sequence.chain: ACATTAGTTGATACAACCATAAAATGATAATTACACCCATAAATGGATAATTATCACACCCAATTTAACTATAACGCTCTGATCATAGTCAGACCAACATTGCTACGACCCGTATTCGCACCGACAC
target.or.system: VchCAST RNA-guided transposition machinery (E. coli BL21(DE3) host, lacZ target)
relative integration efficiency (log2): -6.45

sequence.chain: ACATTTGTTAATAAAACCATACGTTGATTTTACGAAACCATACGCTGAAATAATCACACCCATAAATTGATATTGCCTCTGATCATAGTCAGACCAACATTGCTACGACCCGTATTCGCACCGACAC
target.or.system: VchCAST RNA-guided transposition machinery (E. coli BL21(DE3) host, lacZ target)
relative integration efficiency (log2): -6.57

sequence.chain: ACATTTCATGATACAACCATAAAATGATAATTACACCCATAAATTGATAATTATCACACCCATAAATTGATATTGCCTCTGATCATAGTCAGACCAACATTGCTACGACCCGTATTCGCACCGACAC
target.or.system: VchCAST RNA-guided transposition machinery (E. coli BL21(DE3) host, lacZ target)
relative integration efficiency (log2): -4.85

sequence.chain: ACATTTCTTGATACAACCATAAAATGATAATTACACCCATAAATTGATCATTATCACACCCAATTTAACTATAACGCTCTGATCATAGTCAGACCAACATTGCTACGACCCGTATTCGCACCGACAC
target.or.system: VchCAST RNA-guided transposition machinery (E. coli BL21(DE3) host, lacZ target)
relative integration efficiency (log2): -1.92

sequence.chain: ACATTTGTTGATACAACCATAAGTTGATATTTTCAACCATAAAGTGATATTTATCACAACCATAAAATGATAATTACTCTGATCATAGTCAGACCAACATTGCTACGACCCGTATTCGCACCGACAC
target.or.system: VchCAST RNA-guided transposition machinery (E. coli BL21(DE3) host, lacZ target)
relative integration efficiency (log2): -0.0697
